All figures here come from ChEMBL document CHEMBL1139227.

Target: cGMP-inhibited 3',5'-cyclic phosphodiesterase 3A (Homo sapiens, UniProt Q14432)
Sequence (Q14432 whole entry): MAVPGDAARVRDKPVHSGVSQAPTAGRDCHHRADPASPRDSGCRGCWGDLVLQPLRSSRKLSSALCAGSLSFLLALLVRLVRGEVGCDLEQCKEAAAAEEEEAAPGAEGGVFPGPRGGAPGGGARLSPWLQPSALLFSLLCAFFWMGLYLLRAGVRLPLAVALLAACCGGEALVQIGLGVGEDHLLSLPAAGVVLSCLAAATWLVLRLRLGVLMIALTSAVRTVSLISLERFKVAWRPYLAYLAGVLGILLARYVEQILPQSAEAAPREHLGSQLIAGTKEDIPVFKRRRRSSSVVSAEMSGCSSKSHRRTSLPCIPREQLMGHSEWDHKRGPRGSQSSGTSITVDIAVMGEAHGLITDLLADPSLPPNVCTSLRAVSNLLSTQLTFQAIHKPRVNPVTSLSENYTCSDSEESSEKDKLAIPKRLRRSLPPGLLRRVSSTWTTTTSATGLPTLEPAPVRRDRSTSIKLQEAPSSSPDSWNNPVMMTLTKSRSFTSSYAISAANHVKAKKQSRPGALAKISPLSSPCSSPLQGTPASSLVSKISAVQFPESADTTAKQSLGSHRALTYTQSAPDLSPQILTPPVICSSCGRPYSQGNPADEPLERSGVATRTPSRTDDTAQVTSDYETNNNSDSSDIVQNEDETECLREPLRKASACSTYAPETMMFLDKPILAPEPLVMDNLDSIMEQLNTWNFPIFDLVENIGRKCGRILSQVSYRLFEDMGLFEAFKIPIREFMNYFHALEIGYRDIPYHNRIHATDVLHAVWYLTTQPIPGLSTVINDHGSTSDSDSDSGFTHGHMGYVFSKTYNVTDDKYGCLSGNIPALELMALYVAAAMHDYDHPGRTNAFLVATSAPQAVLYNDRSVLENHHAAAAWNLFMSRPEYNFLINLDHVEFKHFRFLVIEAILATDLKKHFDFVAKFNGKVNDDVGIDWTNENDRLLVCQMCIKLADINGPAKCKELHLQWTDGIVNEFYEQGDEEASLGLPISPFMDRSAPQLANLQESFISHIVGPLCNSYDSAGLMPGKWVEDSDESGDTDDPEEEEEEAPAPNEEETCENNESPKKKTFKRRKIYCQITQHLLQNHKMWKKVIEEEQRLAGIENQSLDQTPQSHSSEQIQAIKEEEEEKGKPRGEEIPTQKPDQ
Assay: Inhibition of human recombinant PDE3A transfected in Sf9 cells by SPA
property: Ki (nM)

smiles	units.text	Ki
COc1cc2ncnc(N3CC[C@@H](Oc4ccc5nc(C)ccc5c4)C3)c2cc1OC	nM	152
COc1cc2ncnc(N3CC[C@@H](Oc4cc5ccccc5cn4)C3)c2cc1OC	nM	151

[A] COc1cc2ncnc(N3CC[C@@H](Oc4ccc(OC(F)(F)F)cc4)C3)c2cc1OC
[B] COc1cc2ncnc(N3CC[C@@H](Oc4ccccn4)C3)c2cc1OC
[C] COc1cc2ncnc(N3CC[C@@H](Oc4ccc5c(c4)CCC5)C3)c2cc1OC
[D] COc1cc2ncnc(N3CC[C@@H](Oc4cccc5ccccc45)C3)c2cc1OC
Could you please sort these 4 entries by Ki from high to low? Your task in answering is to list the labels in the requested order. A, C, B, D

[a] COc1cc2ncnc(N3CC[C@@H](Oc4ccc5ccccc5c4)C3)c2cc1OC
[b] COc1cc2ncnc(N3CC[C@@H](Oc4ccc5ncccc5c4)C3)c2cc1OC
// returns a or b , whichever has the lower Ki Answer by stating the label of the chosen item. b
